# MEASUREMENT DESCRIPTION: CCTE_Shafer_MEA_acute_cross_correlation_area: CCTE's Neural Acute Assay for Area of Cross Correlation, Shafer Lab (AID 2284024);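 also: rat primary cortical neuron networks on 48-well MEA at DIV 13 or 15 with 40 min exposure; area under pooled inter-electrode spike cross-correlation near zero lag as percent change from own baseline; curves fitted for loss of cross-correlation area so actives lower synchrony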
Activity calls are given as the source filed them. The calls were made as follows: active = hit-call score of the fitted dose curve at least 0.9, where 1 is the maximum; inactive = score below 0.9.
QUANTITY: outcome

- O=C(O)c1ccccc1: inactive
- CC1(C)C(C=C(Cl)Cl)C1C(=O)OCc1cccc(Oc2ccccc2)c1 (stereo not drawn): inactive
- Oc1ccc(C(c2ccc(O)cc2)C(Cl)(Cl)Cl)cc1: inactive

====

# Read-out: X-box binding protein 1 (XBP1), XBP1 (gene 7494)
# MEASUREMENT DESCRIPTION: LTEA_HepaRG_XBP1: Life Technologies and Expression Analysis (LTEA) Assay for X-box binding protein 1 (XBP1) using HepaRG (AID 2283540)
# TEST PARAMETERS: mRNA level, 48 h; actives raise or lower the signal
Activity calls are given as the source filed them. The calls were made as follows: active = hit-call score of the fitted dose curve at least 0.9, where 1 is the maximum; inactive = score below 0.9.
Select the correct class. Options are T = active, F = inactive and nothing else.

Would you please look over these solved cases?
* CN(C)C(=O)Nc1ccc(Cl)c(Cl)c1 | T
* O=C(Nc1ccc([N+](=O)[O-])cc1Cl)c1cc(Cl)ccc1O | T
* CCCCC(CC)COC(=O)c1ccccc1C(=O)O (stereo unspecified) | F
* C[C@]12C[C@H](O)[C@H]3[C@@H](CCC4=CC(=O)CC[C@@]43C)[C@@H]1CC[C@@H]2C(=O)CO | F
* O=C(O)c1ccccc1 | F

Exercise: Identify the outcome logged in this assay for the molecule shown: CSC(=O)c1cccc2nnsc12
Key: F

Exercise: Follow-up item: CCCCCOC(=O)COc1cc(N2C(=O)C3=C(CCCC3)C2=O)c(F)cc1Cl
Key: F

Exercise: CCCCCCC(C)OC(=O)COc1nc(F)c(Cl)c(N)c1Cl (stereo unspecified) ?
Key: F

Exercise: Please answer likewise for CC(C)CCCCCCc1ccc(O)cc1
Key: F

Exercise: And then CCN(CC)C(=O)c1cccc(C)c1 , what is it?
Key: F

Exercise: Again, but for CCCN(CCC)C(=O)SCC
Key: F

Exercise: Another: C=CCOC(Cn1ccnc1)c1ccc(Cl)cc1Cl (stereo unspecified)
Key: F
